- TARGET_UNDER_TEST: MST4 (human) (UniProt Q9P289)
- Sequence (Q9P289 whole entry, looked up): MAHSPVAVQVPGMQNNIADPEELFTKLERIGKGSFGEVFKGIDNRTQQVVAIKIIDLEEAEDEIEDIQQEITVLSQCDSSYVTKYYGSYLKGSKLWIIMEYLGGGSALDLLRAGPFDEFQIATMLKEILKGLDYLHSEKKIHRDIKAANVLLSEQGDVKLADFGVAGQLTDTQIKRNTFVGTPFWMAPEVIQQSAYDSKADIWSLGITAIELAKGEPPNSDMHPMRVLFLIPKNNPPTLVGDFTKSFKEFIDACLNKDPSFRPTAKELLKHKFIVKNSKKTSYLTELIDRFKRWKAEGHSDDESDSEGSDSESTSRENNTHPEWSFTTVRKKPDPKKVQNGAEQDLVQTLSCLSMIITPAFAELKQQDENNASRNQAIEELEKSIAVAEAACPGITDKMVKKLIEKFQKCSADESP
- ASSAY_TEXT: radiometric filter-binding kinase assay
- EXPERIMENTAL_PARAMETERS: compound 0.01 µM
MEASURE: residual activity (%)
Reply with just the number (in %).

# example entries with known answers
O=C(Nc1nc2cc(C(F)(F)F)cc(NC3CC3)n2n1)c1cccnc1 :: 106
COc1cc(O)c2c(c1)[C@H]1OC1C[C@H](O)[C@H](O)C(=O)/C=C\C[C@H](C)OC2=O (stereo partly specified) :: 96
CNC(=O)C1[C@H]2O[C@@](C)([C@@H]1N)n1c3ccccc3c3c4c(c5c6ccccc6n2c5c31)C(=O)NC4 (stereo partly specified) :: 86

Look up residual activity: C/C(=C1/C(=O)Nc2ccc(NC(N)=O)cc21)c1ccc[nH]1 80

Input COc1ccc(N(C(=O)Nc2c(C)cccc2C)c2cc(Nc3ccc(N4CCN(C)CC4)cc3)ncn2)c(OC)c1 100

Input CNc1nc(-c2ccc3c(N)n[nH]c3c2)cc(N2C[C@@H](C(=O)NC3CCCCC3)CC[C@H]2C)n1 112

* * *

- TARGET_UNDER_TEST: UniProt:Q16513
- Sequence (Q16513 whole entry, looked up): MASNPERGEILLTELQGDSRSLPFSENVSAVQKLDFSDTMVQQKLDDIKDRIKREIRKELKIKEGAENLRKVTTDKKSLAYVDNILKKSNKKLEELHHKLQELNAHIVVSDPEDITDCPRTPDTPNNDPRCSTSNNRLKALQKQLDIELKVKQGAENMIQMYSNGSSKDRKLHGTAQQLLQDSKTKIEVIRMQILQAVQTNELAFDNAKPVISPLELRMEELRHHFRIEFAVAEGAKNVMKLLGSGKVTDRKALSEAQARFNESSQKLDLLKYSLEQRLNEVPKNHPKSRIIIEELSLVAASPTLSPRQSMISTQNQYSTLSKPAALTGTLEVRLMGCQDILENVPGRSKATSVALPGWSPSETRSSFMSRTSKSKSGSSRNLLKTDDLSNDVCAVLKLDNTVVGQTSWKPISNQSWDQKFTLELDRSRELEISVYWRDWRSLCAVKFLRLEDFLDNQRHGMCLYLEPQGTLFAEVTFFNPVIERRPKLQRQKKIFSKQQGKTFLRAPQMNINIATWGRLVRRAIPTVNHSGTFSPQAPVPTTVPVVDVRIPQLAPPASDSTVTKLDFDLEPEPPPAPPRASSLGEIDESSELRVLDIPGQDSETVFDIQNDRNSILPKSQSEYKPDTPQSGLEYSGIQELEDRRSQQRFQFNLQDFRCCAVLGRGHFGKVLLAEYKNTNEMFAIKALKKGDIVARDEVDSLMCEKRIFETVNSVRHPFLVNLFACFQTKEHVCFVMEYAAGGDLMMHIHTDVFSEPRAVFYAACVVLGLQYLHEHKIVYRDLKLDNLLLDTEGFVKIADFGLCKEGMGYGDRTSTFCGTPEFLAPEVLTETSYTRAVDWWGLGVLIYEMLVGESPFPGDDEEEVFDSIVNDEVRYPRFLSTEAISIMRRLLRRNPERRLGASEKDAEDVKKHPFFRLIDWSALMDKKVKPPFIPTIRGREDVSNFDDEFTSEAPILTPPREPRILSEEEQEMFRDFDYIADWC
- ASSAY_TEXT: radiometric filter-binding kinase assay
- EXPERIMENTAL_PARAMETERS: compound 10.0 µM
Output true (1) for records whose residual activity is lower than 70%, false (0) for records at or above 70%.

NCC(=O)Nc1ccc(-n2nc(C(F)(F)F)cc2-c2ccc3c(ccc4ccccc43)c2)cc1 :: true (1)

Dear colleague, could you confirm whether residual activity of FC(F)(F)c1ccc(-c2ccc(Oc3cncc4sc(-c5nn[nH]n5)cc34)cc2)cc1 falls below 70%? Thanks. true (1)

Input NC(=O)c1c(NC(=O)C2CC2)sc2c1CCCC2 false (0)

Input O=C(NOCC(O)CO)c1ccc(F)c(F)c1Nc1ccc(I)cc1Cl (stereo not given) false (0)

Input CCn1c(-c2nonc2N)nc2cncc(CNC3CCNCC3)c21 true (1)

* * *

- TARGET_UNDER_TEST: JAK2 JH1 JH2 (human) (UniProt O60674)
- Sequence (O60674 whole entry, looked up): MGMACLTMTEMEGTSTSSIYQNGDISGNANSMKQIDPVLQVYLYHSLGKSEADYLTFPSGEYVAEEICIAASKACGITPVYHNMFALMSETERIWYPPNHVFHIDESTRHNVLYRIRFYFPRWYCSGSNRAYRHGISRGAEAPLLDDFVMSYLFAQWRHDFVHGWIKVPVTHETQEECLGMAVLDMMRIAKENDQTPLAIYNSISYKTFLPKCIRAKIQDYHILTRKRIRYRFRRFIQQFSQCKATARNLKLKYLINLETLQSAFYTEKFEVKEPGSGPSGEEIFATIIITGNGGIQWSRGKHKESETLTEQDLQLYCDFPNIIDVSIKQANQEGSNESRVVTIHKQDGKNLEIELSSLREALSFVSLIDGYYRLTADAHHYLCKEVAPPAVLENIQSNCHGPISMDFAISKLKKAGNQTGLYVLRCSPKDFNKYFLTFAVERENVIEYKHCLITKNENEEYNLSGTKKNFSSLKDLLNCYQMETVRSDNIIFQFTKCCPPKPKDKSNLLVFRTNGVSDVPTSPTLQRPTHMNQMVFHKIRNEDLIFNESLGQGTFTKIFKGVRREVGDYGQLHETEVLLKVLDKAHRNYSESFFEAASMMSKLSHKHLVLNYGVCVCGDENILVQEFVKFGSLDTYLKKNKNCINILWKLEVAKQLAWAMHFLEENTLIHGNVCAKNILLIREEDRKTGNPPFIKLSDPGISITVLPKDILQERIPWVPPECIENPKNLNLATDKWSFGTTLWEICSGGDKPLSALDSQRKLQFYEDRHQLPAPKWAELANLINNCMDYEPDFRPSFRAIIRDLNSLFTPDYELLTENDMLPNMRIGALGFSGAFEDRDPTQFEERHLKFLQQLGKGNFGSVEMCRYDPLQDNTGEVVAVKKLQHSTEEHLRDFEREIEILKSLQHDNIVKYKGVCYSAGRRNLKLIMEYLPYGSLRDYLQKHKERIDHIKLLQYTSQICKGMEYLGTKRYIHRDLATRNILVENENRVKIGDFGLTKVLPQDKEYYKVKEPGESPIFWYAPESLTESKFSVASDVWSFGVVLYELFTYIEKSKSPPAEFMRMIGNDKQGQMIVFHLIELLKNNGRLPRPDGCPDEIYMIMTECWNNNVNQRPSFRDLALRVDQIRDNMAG
- ASSAY_TEXT: radiometric filter-binding kinase assay
- EXPERIMENTAL_PARAMETERS: compound 10.0 µM
Categories are defined by ranges of residual activity, namely low-valued: < 50%; mid-valued: ≥ 50% and < 90%; high-valued: ≥ 90%

Example cases with answers are listed next.
COc1cc2ncn(-c3cc(OCc4ccccc4S(C)(=O)=O)c(C#N)s3)c2cc1OC :: low-valued
Nc1cccc2c1CN(C1CCC(=O)NC1=O)C2=O (stereo unspecified) :: high-valued
CCOC(=O)c1ccc(N2NC(=O)/C(=C/c3ccc([N+](=O)[O-])o3)C2=O)cc1 :: low-valued
O=C(Nc1ccccc1-c1cn2c(CN3CCNCC3)csc2n1)c1cnc2ccccc2n1 :: mid-valued
N#Cc1c(O)c2c(-c3ccc(-c4ccccc4O)cc3)csc2[nH]c1=O :: mid-valued
O=C(N[C@@H](COc1ccc2[nH]c(=O)[nH]c2c1)c1ccccc1)c1cccn(Cc2ccc(F)c(F)c2)c1=O :: high-valued
Cc1ccc2c(c1)C(=O)[C@@]1(O)CCN(c3ccccc3)C1=N2 :: high-valued
COC(=O)/C=C/C(=O)OC :: high-valued

Record NC(=O)c1ccc(-c2ccc(Oc3cncc4sc(-c5nn[nH]n5)cc34)cc2)cc1 — which class? mid-valued

Input CCn1c(-c2nonc2N)nc2cncc(CNC3CCNCC3)c21 high-valued

Input CNc1nc(-c2ccc3c(N)n[nH]c3c2)cc(N2C[C@@H](C(=O)NC3CCCCC3)CC[C@H]2C)n1 high-valued

Input O=c1c(O)c(-c2ccc(O)c(O)c2)oc2cc(O)c(O)c(O)c12 low-valued

Input NS(=O)(=O)OC[C@@H]1C[C@@H](n2ccc3c(N[C@H]4CCc5ccccc54)ncnc32)C[C@@H]1O high-valued

Input O=C(NOC[C@H](O)CO)c1ccc(F)c(F)c1Nc1ccc(I)cc1Cl low-valued

Input CC1=C(CO)C(=O)O[C@@H]([C@@H](C)[C@H]2CC[C@H]3[C@@H]4C[C@H]5O[C@]56[C@@H](O)C=CC(=O)[C@]6(C)C4CC[C@]23C)C1 (stereo partly specified) high-valued

Input NC(=O)c1cc2c(-c3cccc(-c4ccccc4)c3)cnc(N)c2s1 low-valued

Input N#Cc1c(C2CCNCC2)cc(-c2c(O)cccc2OCC2CC2)nc1N low-valued

Input O=C(NOCC(O)CO)c1ccc(F)c(F)c1Nc1ccc(I)cc1Cl (stereo unspecified) low-valued

Input Cc1ccc(Sc2cnc(Nc3cccc(Br)n3)s2)cc1C(=O)N1CCN(C(=O)CN)CC1 low-valued

Input Oc1ccc(/C=C/c2cc(O)cc(O)c2)cc1 low-valued

Input CCNc1nc(Nc2cc(F)c(C(=O)N3CCOCC3)cc2OC)ncc1C(F)(F)F low-valued

Input c1ccc2c(-c3cnn4cc(-c5ccc(N6CCNCC6)cc5)cnc34)ccnc2c1 mid-valued

Input Cc1nc(-c2ccc(OCC(C)C)c(C#N)c2)sc1C(=O)O mid-valued

Input C=CC(=O)N1CCC[C@@H](n2nc(-c3ccc(Oc4ccccc4)cc3)c3c(N)ncnc32)C1 mid-valued

Input CCCC(CCC)C(=O)O mid-valued

Input CCCCCc1ccc(/C=C/[C@H](O)[C@@H](CO)NC)cc1 high-valued

* * *

- TARGET_UNDER_TEST: NEK6 (human)
- ASSAY_TEXT: radiometric filter-binding kinase assay
- EXPERIMENTAL_PARAMETERS: compound 1.0 µM
Returns one of 1.0 or 0.0; 1.0 when residual activity is >= 90%.

Example cases with answers are listed next.
O=C(N[C@@H](COc1ccc2[nH]c(=O)[nH]c2c1)c1ccccc1)c1cccn(Cc2ccc(F)c(F)c2)c1=O :: 1.0
CCc1cncnc1N1CCN(Cc2nc3cc(C(F)(F)F)ccc3[nH]2)CC1 :: 0.0
FC(F)(F)c1ccc(-c2ccc(Oc3cncc4sc(-c5nn[nH]n5)cc34)cc2)cc1 :: 1.0

Tell me whether residual activity is at least 90% here: Nc1cccc2c1CN(C1CCC(=O)NC1=O)C2=O (stereo unspecified) 1.0

Input O=c1c(O)c(-c2ccc(O)c(O)c2)oc2cc(O)c(O)c(O)c12 1.0

Input COc1ccc2c(c1)c1c3c(c4c5ccccc5n(C)c4c1n2CC(O)CN(C)C)C(=O)NC3=O (stereo unspecified) 0.0

Input C=C1C(=O)OC2C1CC/C(C)=C/CCC1(C)OC21 (stereo unspecified) 1.0

Input CCCC(CCC)C(=O)O 1.0

Input N#Cc1c(C2CCNCC2)cc(-c2c(O)cccc2OCC2CC2)nc1N 1.0

Input NC(=O)c1cc2c(-c3cccc(-c4ccccc4)c3)cnc(N)c2s1 1.0

Input CNc1nc(-c2ccc3c(N)n[nH]c3c2)cc(N2C[C@@H](C(=O)NC3CCCCC3)CC[C@H]2C)n1 0.0

* * *

Recorded residual activity values for a group of molecules are listed next.
- System: OXSR1 (human), O95747 [T185E]
- Sequence (O95747 whole entry T185E, looked up): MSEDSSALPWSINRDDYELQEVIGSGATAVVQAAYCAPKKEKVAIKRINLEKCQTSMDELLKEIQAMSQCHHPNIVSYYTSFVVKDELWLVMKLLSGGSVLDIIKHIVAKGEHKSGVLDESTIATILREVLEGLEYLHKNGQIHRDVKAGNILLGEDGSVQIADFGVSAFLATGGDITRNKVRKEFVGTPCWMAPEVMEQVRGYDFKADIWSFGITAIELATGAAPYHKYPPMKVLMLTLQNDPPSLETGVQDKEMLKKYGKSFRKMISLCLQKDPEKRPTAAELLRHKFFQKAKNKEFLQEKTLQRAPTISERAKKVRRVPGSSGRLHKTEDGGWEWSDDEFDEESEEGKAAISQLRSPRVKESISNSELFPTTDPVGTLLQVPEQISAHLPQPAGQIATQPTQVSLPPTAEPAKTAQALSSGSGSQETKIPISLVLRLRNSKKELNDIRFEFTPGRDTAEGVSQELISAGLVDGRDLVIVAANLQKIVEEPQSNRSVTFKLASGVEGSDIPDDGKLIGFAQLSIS
- ASSAY_TEXT: radiometric filter-binding kinase assay
- EXPERIMENTAL_PARAMETERS: compound 1.0 µM

CNc1nc(-c2ccc3c(N)n[nH]c3c2)cc(N2C[C@@H](C(=O)NC3CCCCC3)CC[C@H]2C)n1 :: 112%
O=C(NOC[C@H](O)CO)c1ccc(F)c(F)c1Nc1ccc(I)cc1Cl :: 95%

Look up residual activity: O=C(N[C@@H](COc1ccc2[nH]c(=O)[nH]c2c1)c1ccccc1)c1cccn(Cc2ccc(F)c(F)c2)c1=O 96%

Input CC1=C(CO)C(=O)O[C@@H]([C@@H](C)[C@H]2CC[C@H]3[C@@H]4C[C@H]5O[C@]56[C@@H](O)C=CC(=O)[C@]6(C)C4CC[C@]23C)C1 (stereo partly drawn) 109%

Input O=C(Nc1nc2cc(C(F)(F)F)cc(NC3CC3)n2n1)c1cccnc1 92%

Input C=CC(=O)N1CCC[C@@H](n2nc(-c3ccc(Oc4ccccc4)cc3)c3c(N)ncnc32)C1 96%

Input COc1ccc(-n2ncc3cnc(Nc4cc(OC)c(OC)c(OCCCN5CCN(C)CC5)c4)nc32)cc1 71%

Input NCC(=O)Nc1ccc(-n2nc(C(F)(F)F)cc2-c2ccc3c(ccc4ccccc43)c2)cc1 95%

* * *

Recorded residual activity values for a group of compounds are listed next.
- TARGET_UNDER_TEST: UniProtKB P14616
- Sequence (P14616 whole entry, looked up): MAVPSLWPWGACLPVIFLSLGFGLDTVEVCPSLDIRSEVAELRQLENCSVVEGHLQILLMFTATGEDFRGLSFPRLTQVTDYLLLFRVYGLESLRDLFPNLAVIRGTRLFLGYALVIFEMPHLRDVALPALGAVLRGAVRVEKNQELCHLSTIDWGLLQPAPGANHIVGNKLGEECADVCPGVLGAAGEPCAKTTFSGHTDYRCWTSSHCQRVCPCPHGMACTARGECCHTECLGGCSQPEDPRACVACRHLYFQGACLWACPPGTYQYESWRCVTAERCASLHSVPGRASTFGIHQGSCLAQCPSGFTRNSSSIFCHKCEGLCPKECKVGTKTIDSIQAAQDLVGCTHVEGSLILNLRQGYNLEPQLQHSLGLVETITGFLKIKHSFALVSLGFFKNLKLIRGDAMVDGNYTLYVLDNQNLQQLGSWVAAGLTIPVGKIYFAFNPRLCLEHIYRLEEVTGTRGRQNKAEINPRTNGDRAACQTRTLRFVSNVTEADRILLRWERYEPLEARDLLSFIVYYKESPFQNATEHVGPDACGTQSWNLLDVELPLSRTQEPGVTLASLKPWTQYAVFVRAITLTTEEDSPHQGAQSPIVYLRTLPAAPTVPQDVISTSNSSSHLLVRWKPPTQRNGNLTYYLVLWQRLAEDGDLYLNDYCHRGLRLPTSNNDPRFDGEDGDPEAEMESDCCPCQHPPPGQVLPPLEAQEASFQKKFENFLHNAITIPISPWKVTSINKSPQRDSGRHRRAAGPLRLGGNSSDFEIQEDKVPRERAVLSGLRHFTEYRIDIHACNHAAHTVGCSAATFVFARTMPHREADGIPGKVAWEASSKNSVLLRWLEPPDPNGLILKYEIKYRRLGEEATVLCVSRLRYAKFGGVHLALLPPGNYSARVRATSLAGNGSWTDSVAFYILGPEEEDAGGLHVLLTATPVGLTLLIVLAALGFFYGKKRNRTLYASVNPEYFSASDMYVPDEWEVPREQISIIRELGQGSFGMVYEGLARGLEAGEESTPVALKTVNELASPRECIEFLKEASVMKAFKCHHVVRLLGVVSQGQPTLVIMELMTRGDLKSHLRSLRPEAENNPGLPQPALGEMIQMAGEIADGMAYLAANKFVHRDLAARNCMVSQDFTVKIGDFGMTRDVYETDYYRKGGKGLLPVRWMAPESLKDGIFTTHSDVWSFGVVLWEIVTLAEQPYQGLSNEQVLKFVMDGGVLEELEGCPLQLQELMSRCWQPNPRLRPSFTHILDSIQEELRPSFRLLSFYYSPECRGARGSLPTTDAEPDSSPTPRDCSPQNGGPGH
- ASSAY_TEXT: radiometric filter-binding kinase assay
- EXPERIMENTAL_PARAMETERS: compound 0.01 µM
Reply with just the number (in %).

# example entries with known answers
O=C(Nc1nc2cc(C(F)(F)F)cc(NC3CC3)n2n1)c1cccnc1 :: 91
CNc1nc(-c2ccc3c(N)n[nH]c3c2)cc(N2C[C@@H](C(=O)NC3CCCCC3)CC[C@H]2C)n1 :: 111
CNC(=O)C1[C@H]2O[C@@](C)([C@@H]1N)n1c3ccccc3c3c4c(c5c6ccccc6n2c5c31)C(=O)NC4 (stereo partly specified) :: 47
COc1ccc(N(C(=O)Nc2c(C)cccc2C)c2cc(Nc3ccc(N4CCN(C)CC4)cc3)ncn2)c(OC)c1 :: 113

Look up residual activity: C/C(=C1/C(=O)Nc2ccc(NC(N)=O)cc21)c1ccc[nH]1 75

Input COc1cc(O)c2c(c1)[C@H]1OC1C[C@H](O)[C@H](O)C(=O)/C=C\C[C@H](C)OC2=O (stereo partly specified) 104
